Target: MC5R (Homo sapiens)
Construct: purchased Promega (in-house HiBiT-GPCR construct library, NanoBRET)
Sequence (P33032 whole entry): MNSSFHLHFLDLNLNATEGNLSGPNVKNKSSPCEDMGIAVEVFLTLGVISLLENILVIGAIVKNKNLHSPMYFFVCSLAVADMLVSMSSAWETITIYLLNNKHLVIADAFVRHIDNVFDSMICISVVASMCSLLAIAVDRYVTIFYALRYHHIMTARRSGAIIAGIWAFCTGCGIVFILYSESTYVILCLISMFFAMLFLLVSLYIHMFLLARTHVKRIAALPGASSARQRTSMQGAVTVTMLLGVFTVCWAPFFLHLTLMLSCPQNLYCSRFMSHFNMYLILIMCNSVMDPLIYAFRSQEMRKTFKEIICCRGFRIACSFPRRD
Experiment: NanoBRET screen HiBiT-MC5R in HEK293
Type: binding
Conditions: MC5R; tracer 1μM
We begin with a simple list: items and their reported NanoBRET Fold Response.
I'd appreciate a reply containing only the number, no unit.

- compound: "CCCn1c(=O)c2[nH]c(-c3ccc(OCC(=O)NCCNC(=O)CCOCCNC(=O)c4ccc(CNC(=O)CCc5ccc6n5[B-](F)(F)[N+]5=C(c7ccc[nH]7)C=CC5=C6)cc4)cc3)nc2n(CCC)c1=O"
  NanoBRET Fold Response: 0.98
- compound: "CC(C)N(CC[C@H](c1ccccc1)c1cc(CCNC(=O)c2ccc(CNC(=O)CCc3ccc4n3[B-](F)(F)[N+]3=C(c5ccc[nH]5)C=CC3=C4)cc2)ccc1O)C(C)C"
  NanoBRET Fold Response: 1.02

Read the next record carefully.
Name the recorded NanoBRET Fold Response for Cc1nc2n(c(=O)c1CCN1CCC(c3noc4cc(F)ccc34)CC1)CCCC2OC(=O)NCCOCCOCCOCCOCCNC(=O)CCc1ccc2n1[B-](F)(F)[N+]1=C(c3ccc[nH]3)C=CC1=C2 (stereo not drawn) .
1.02

###

Measured NanoBRET Fold Response, listed per entry for reference.
Target: CXCR5 (Homo sapiens)
Construct: purchased Promega (in-house HiBiT-GPCR construct library, NanoBRET)
Sequence (P32302 whole entry): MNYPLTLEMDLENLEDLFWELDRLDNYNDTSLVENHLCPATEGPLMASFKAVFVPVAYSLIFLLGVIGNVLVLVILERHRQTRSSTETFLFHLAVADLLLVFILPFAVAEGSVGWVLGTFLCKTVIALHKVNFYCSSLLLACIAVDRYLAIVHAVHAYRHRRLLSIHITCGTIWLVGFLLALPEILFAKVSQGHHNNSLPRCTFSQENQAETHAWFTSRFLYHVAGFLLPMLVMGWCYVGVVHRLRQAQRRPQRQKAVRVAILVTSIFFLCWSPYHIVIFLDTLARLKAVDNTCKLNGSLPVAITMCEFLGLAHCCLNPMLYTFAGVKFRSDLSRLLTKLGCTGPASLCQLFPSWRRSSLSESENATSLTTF
Assay: NanoBRET screen HiBiT-CXCR5 in HEK293
Assay type: binding
Details: CXCR5; tracer 1μM
Simply state the number, no unit and no words.

Look over these answered cases.
- compound: "COc1ccccc1N1CCN(CCCCN2C(=O)c3ccc(CNC(=O)CCOCCOCCOCCOCCNC(=O)CCc4ccc5n4[B-](F)(F)[N+]4=C(c6ccc[nH]6)C=CC4=C5)cc3C2=O)CC1 [NAN-190-2-NB590]"
  tested_system: "CXCR5 (Homo sapiens)"
  NanoBRET Fold Response: 1.00
- compound: "N#CN=C(NCCCOc1cccc(CN2CCCCC2)c1)NCCNC(=O)CCOCCOCCOCCOCCNC(=O)CCc1ccc2n1[B-](F)(F)[N+]1=C(c3ccc[nH]3)C=CC1=C2 [Aminopotentidine-2-NB590]"
  tested_system: "CXCR5 (Homo sapiens)"
  NanoBRET Fold Response: 0.99
- compound: "O=C(CCc1ccc2n1[B-](F)(F)[N+]1=C(c3ccc[nH]3)C=CC1=C2)NCCOCCOCCNC(=O)OCCOCCN1CCN(C2=Nc3ccccc3Sc3ccccc32)CC1 [Quetiapine-a-2-NB590]"
  tested_system: "CXCR5 (Homo sapiens)"
  NanoBRET Fold Response: 0.92
- compound: "Cc1cc2c(s1)Nc1ccccc1N=C2N1CCN(CCCNC(=O)CCOCCOCCOCCOCCNC(=O)CCc2ccc3n2[B-](F)(F)[N+]2=C(c4ccc[nH]4)C=CC2=C3)CC1 [Olanzapine-a-2-NB590]"
  tested_system: "CXCR5 (Homo sapiens)"
  NanoBRET Fold Response: 0.86
- compound: "CCCn1c(=O)c2[nH]c(-c3ccc(OCC(=O)NCCNC(=O)CCOCCNC(=O)c4ccc(CNC(=O)CCc5ccc6n5[B-](F)(F)[N+]5=C(c7ccc[nH]7)C=CC5=C6)cc4)cc3)nc2n(CCC)c1=O [XAC-3-NB590]"
  tested_system: "CXCR5 (Homo sapiens)"
  NanoBRET Fold Response: 0.87

Using the record for COc1ccccc1N1CCN(CCCCN2C(=O)c3ccc(CNC(=O)CCOCCNC(=O)c4ccc(CNC(=O)CCc5ccc6n5[B-](F)(F)[N+]5=C(c7ccc[nH]7)C=CC5=C6)cc4)cc3C2=O)CC1 [NAN-190-3-NB590] , report its NanoBRET Fold Response.
0.68

Requested field: NanoBRET Fold Response. Item: Cc1nc2n(c(=O)c1CCN1CCC(c3noc4cc(F)ccc34)CC1)CCCC2OC(=O)NCCOCCOCCOCCOCCNC(=O)CCc1ccc2n1[B-](F)(F)[N+]1=C(c3ccc[nH]3)C=CC1=C2 (centres unmarked) [Risperidone-2-NB590]
0.93

Given the compound O=C(CCc1ccc2n1[B-](F)(F)[N+]1=C(c3ccc[nH]3)C=CC1=C2)NCc1ccc(C(=O)NCCOCCC(=O)N[C@@H]2CC[C@@]3(O)[C@H]4Cc5ccc(O)c6c5[C@@]3(CCN4CC3CC3)[C@H]2O6)cc1 [Naltrexone-3-NB590] , what is its reported NanoBRET Fold Response?
0.57

# input compound: O=C(CCOCCOCCOCCOCCNC(=O)CCc1ccc2n1[B-](F)(F)[N+]1=C(c3ccc[nH]3)C=CC1=C2)NCCCN1CCN(C2=Nc3ccccc3Oc3ccc(Cl)cc32)CC1 [Loxapine-a-2-NB590] ; wanted: its NanoBRET Fold Response
0.90

Using the record for CC(C)N(CC[C@H](c1ccccc1)c1cc(CCNC(=O)CCOCCOCCOCCOCCNC(=O)CCc2ccc3n2[B-](F)(F)[N+]2=C(c4ccc[nH]4)C=CC2=C3)ccc1O)C(C)C [Tolterodine-2-NB590] , report its NanoBRET Fold Response.
1.00

Given CC(C)N(CC[C@H](c1ccccc1)c1cc(CCNC(=O)c2ccc(CNC(=O)CCc3ccc4n3[B-](F)(F)[N+]3=C(c5ccc[nH]5)C=CC3=C4)cc2)ccc1O)C(C)C [Tolterodine-BZ-NB590] , state its recorded NanoBRET Fold Response.
0.91
